Test system: Zymoseptoria tritici (SEPTTR-184)
assay-name: Cyp51 dsRNA tile (fragment) foliar application bioassay (Example 6)
Assay type: in vivo
experimental-parameters: 1 day protectant; rate 50 ppm; average of 2 trials
parameter-measured: Disease Control (%) SEPTTR-184 1DP
The reply must contain the numeric value and, after it, the unit.

input: So what does the record say about Disease Control (%) SEPTTR-184 1DP for MgCyp51-T7: dsRNA tile of Zymoseptoria tritici Cyp51, 111 bp, location 1490-1600 (nucleic acid, listed as Zymoseptoria tritici, long dsRNA tile, purified, chemistry not given here) CGACGATGGTTCGCGATTTCAAGTTTTACAATGTGGATGGCAGCGACAACGTGGTGGGTACGGATTACAGCAGTTTGTTCAGCCGGCCGCTGTCGCCGGCAGTAGTAAAGT ?
output: 66%
